Numbers sourced from ChEMBL document CHEMBL1955842.

System: Human immunodeficiency virus 1
Test: Antiviral activity against wild type HIV1 ERS104 infected in PHA-PBM cells assessed as inhibition of p24 Gag protein production
Type: functional, organism-based
Conditions Used: Human immunodeficiency virus 1, ERS104, PBMC
pEC50: −log10 of the molar value.
Entries annotated with measured pEC50

Chem Smiles | pEC50
COC(=O)N[C@@H]1CO[C@@H]2C[C@H](OC(=O)N[C@@H](Cc3ccccc3)[C@H](O)CN(CC(C)C)S(=O)(=O)c3ccc(OC)cc3)C[C@H]12 | 7.54
COC(=O)N[C@H]1CO[C@@H]2C[C@H](OC(=O)N[C@@H](Cc3ccccc3)[C@H](O)CN(CC(C)C)S(=O)(=O)c3ccc(OC)cc3)C[C@H]12 | 8.52

* * *

System: Human immunodeficiency virus 1
Test: Antiviral activity against HIV1 MDR/TM harboring protease L10I, K14R, R41K, M46L, I54V, L63P, A71V, V82A, L90M, I93L mutant infected in PHA-PBM cells assessed as inhibition of p24 Gag protein production
Assay type: functional, organism-based
Conditions Used: Human immunodeficiency virus 1, MDR/TM, PBMC
Listing: EC50 of selected molecules
Measure Name: EC50 (nM)

Chem Smiles | Measure Name | Units Of Measure | Numeric Value
COC(=O)N[C@H]1CO[C@@H]2C[C@H](OC(=O)N[C@@H](Cc3ccccc3)[C@H](O)CN(CC(C)C)S(=O)(=O)c3ccc(OC)cc3)C[C@H]12 | EC50 | nM | 24
CC(C)CN(C[C@@H](O)[C@H](Cc1ccccc1)NC(=O)O[C@H]1CO[C@H]2OCC[C@H]21)S(=O)(=O)c1ccc(N)cc1 | EC50 | nM | 28
COC(=O)N[C@@H]1CO[C@@H]2C[C@H](OC(=O)N[C@@H](Cc3ccccc3)[C@H](O)CN(CC(C)C)S(=O)(=O)c3ccc(OC)cc3)C[C@H]12 | EC50 | nM | 74

* * *

Tested on: Human immunodeficiency virus 1
Test: Antiviral activity against HIV1 […] infected in human MT2 cells by MTT assay
Format: functional, organism-based
Conditions Used: Human immunodeficiency virus 1, MT2
Below is a list of entries, each paired with its recorded log10(IC50) value.
Measure Name: log10(IC50) (log10 of the value in nM)

Chem Smiles | System Name | Measure Name | Numeric Value
COc1ccc(S(=O)(=O)N(CC(C)C)C[C@@H](O)[C@H](Cc2ccccc2)NC(=O)O[C@@H]2C[C@@H]3[C@@H](NC(C)=O)CO[C@@H]3C2)cc1 | Human immunodeficiency virus 1 | log10(IC50) | 1.49
COc1ccc(S(=O)(=O)N(CC(C)C)C[C@@H](O)[C@H](Cc2ccccc2)NC(=O)O[C@@H]2C[C@@H]3[C@@H](OC(=O)N(C)C)CO[C@@H]3C2)cc1 | Human immunodeficiency virus 1 | log10(IC50) | 0.67
COc1ccc(S(=O)(=O)N(CC(C)C)C[C@@H](O)[C@H](Cc2ccccc2)NC(=O)O[C@@H]2C[C@@H]3[C@H](NC(C)=O)CO[C@@H]3C2)cc1 | Human immunodeficiency virus 1 | log10(IC50) | 1.40
COC(=O)N[C@H]1CO[C@@H]2C[C@H](OC(=O)N[C@@H](Cc3ccccc3)[C@H](O)CN(CC(C)C)S(=O)(=O)c3ccc(OC)cc3)C[C@H]12 | Human immunodeficiency virus 1 | log10(IC50) | 0.66
COc1ccc(S(=O)(=O)N(CC(C)C)C[C@@H](O)[C@H](Cc2ccccc2)NC(=O)O[C@@H]2C[C@@H]3[C@@H](NS(C)(=O)=O)CO[C@@H]3C2)cc1 | Human immunodeficiency virus 1 | log10(IC50) | 1.70
COc1ccc(S(=O)(=O)N(CC(C)C)C[C@@H](O)[C@H](Cc2ccccc2)NC(=O)O[C@@H]2C[C@@H]3[C@H](NS(C)(=O)=O)CO[C@@H]3C2)cc1 | Human immunodeficiency virus 1 | log10(IC50) | 1.45
COC(=O)N[C@@H]1CO[C@@H]2C[C@H](OC(=O)N[C@@H](Cc3ccccc3)[C@H](O)CN(CC(C)C)S(=O)(=O)c3ccc(OC)cc3)C[C@H]12 | Human immunodeficiency virus 1 | log10(IC50) | 0.20
